Source of measurements: paper PMC3261798

The following compounds are listed with their measured remaining activity at 1 µM values.
Molecular target: PKD1 (Homo sapiens, UniProt Q15139)
Sequence (Q15139 1-912): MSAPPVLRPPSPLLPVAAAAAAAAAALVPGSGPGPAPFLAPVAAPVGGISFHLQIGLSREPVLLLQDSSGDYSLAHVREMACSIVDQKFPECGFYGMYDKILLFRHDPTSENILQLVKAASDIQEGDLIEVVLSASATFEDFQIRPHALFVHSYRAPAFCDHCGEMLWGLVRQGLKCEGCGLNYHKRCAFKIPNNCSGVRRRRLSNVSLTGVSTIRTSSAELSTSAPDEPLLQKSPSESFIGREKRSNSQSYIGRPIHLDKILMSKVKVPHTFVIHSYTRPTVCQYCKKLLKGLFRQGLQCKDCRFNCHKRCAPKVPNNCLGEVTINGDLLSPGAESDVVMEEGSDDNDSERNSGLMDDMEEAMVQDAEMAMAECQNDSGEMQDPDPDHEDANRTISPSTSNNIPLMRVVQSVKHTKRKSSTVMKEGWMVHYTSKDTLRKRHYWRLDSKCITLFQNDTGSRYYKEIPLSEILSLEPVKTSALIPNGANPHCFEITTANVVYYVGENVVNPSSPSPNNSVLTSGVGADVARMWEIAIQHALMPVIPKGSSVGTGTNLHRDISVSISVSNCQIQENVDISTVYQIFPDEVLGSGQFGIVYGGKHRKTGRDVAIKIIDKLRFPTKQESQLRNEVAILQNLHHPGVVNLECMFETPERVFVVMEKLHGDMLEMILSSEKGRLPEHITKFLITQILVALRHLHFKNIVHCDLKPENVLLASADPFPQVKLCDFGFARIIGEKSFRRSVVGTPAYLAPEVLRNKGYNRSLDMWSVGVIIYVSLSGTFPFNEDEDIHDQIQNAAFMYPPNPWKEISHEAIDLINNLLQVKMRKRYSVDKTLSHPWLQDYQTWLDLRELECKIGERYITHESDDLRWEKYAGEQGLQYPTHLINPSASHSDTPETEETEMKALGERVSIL
Experiment: % PKD1 activity at 1 μM (single concentration; assay format not stated)
Type: biochemical
Details: compound at 1 μM
measure_name: remaining activity at 1 µM (%)

COc1ccc2c(c1)c1c([s+]2[O-])C(=O)NCCS1 (stereo not drawn)    50.4
Oc1ccc2sc3c(c2c1)SCCNC3    92.4
COC(=O)c1sc2ccc(OC)cc2c1NCCCO    91.3
